Record form. Attribute: Neut IC50 (µg/ml) subtype A. Fill in for each entry.
tested-on: RSV F protein of subtype A (strain A2) on recombinant mKate-RSV (Respiratory syncytial virus subtype A …, UniProt P03420 26-574)
method-notes: cell-based or functional assay
State the answer as a number, implicitly in µg/mL.

Incoming: Respond only with Neut IC50 (µg/ml) subtype A recorded for ADI-14532 (antibody, V domains shown, IgG; also called Antibody Number 92) VH: EVQLVESGGGLVKPGGSLRLSCAASGFIFRNAWMSWVRQAPGKGLEWVGRIKRTSEGGSVDYATPVQGRFSISRDDSRKTLYLQMNSLETDDTAVYYCSTGPPYSYFDSSGYSVVDYWGLGTLVTVSS VL: SYELTQPPSASGTPGQRVTISCSASSSNIGDNYFYWYQQLPGKAPTLLMYGSDQRSSGVPDRFSGSQSGTSASLAISGLRSEDEADYYCAAWDDSLSGPVFGGGTQLTVL
Outgoing: 0.168

Incoming: Respond only with Neut IC50 (µg/ml) subtype A recorded for ADI-14547 (antibody, V domains shown, IgG; also called Antibody Number 107) VH: EVQLLESGPVLVKPTETLTLTCTVSGFSLANPDVAVAWIRQPPGKALEWLAHIFSGDETSYTTSLQNRLTISKDTSKSQVVLIMTKMDPRDTGTYFCARVLTTWHGPDYWGQGTTVTVSS VL: ETTLTQSPLSLPVTLGQPASISCRSDQSLVYHNGNTYVSWFHQRPGQSPRRLIYKVSIRDSGVPDRFSGSGSGTDFALKISRVEAEDLGVYYCMQGSHWPHTFGQGTKVDIK
Outgoing: 0.198

Attribution: patent US20250313612A1
